# TEST_NAME: Antioxidant activity assessed as DPPH radical scavenging activity at 10 uM incubated for 30 min by DPPH assay
# Type: functional
The source made the active and inactive calls. The calls are words filed in the database; no cut-off is given here.
Please reply with one of these outcomes: active, inactive

Please review the entries below; each comes with its answer.
molecule=COC(=O)c1ccc(NCc2cc(O)c3ccccc3c2O)cc1 class_label=active
molecule="Oc1ccc(CCC2CCC(c3ccc(O)cc3)CO2)cc1 (centres undefined)" class_label=inactive
molecule=COc1ccc(C2=C/C(=C/c3ccc(O)cc3O)C(=O)O2)cc1 class_label=inactive

We next turn to a different molecule, shown below.
Problem: Please share the test call associated with CC(=O)NC(CCc1ccc(Cl)c(Cl)c1)c1cccc(O)c(=O)c1 (centres undefined) .
Solution: inactive

The origin of these recorded values is ChEMBL document CHEMBL5528002.
